For each of the sequences below, state its Fresh Weight Increase.
Tested on: soy
protocol-summary: Drought resistance in soy (foliar spray)
Format: in vivo
experimental-context: foliar spray 0.2 μg/ml, vs untreated control
Marks after values point to notes of the source that are not given here.

Worked cases, Fresh Weight Increase given:
LSPLEQLMKIFADITQSLFEEEE (P13-5 peptide) [Peptide P13-5] : 12.23** %
TSGLSPLEQLLKIFAEITQSLFG (P13-3 peptide) [Peptide P13-3] : 11.43** %
MSPMEQLMKIFADITQSLFEEEE (P13-4 peptide) [Peptide P13-4] : 7.75** %
QTGDDSLSGAGQTSGMSPMEQLMKIFADITQSLFG (P13-14 peptide) [Peptide P13-14] : −2.86%

Item TSGLSPLEQLLKIFADITQSLFG (P13-2 peptide) [Peptide P13-2] has what recorded Fresh Weight Increase?
7.84** %

###

Assign % Change Dry Weight to each entry below.
Tested on: corn
protocol-summary: Drought resistance in seed-coated corn
Type: in vivo
experimental-context: corn seed treatment 1.05 μg/seed, vs mock
Answers are plain numbers, in %.

AGQTSGMSPMEQLMKIFADITQSLFGDEDG (P13-44 peptide) [Peptide P13-44] : 3.44
AGQTSGMSPMEQLMEIFADITQSLFGDQR (P13-57 peptide) [Peptide P13-57] : −0.68
AGQTSGMSPMEQLMKILADITQSLLGDQDG (P13-33 peptide) [Peptide P13-33] : 2.59

Proceed to the following item.
Which value of % Change Dry Weight has been reported for AGQTSGMSPMEQLMKLFADLTQSLFGDQDG (P13-30 peptide) [Peptide P13-30] in the records?
2.73

###

Test system: corn
protocol-summary: Drought resistance in seed-coated corn
Format: in vivo
experimental-context: corn seed treatment 1.05 μg/seed, vs mock
Hi there, I'd appreciate the recorded % Change Dry Weight for every entry that follows.
Numbers only, in %.

P13-48: P13 peptide variant tested in corn seed treatment, SEQ ID NO: 70; sequence not printed in the text (AGQTSGMSPEEQLMKIFADITQSLFGDQDG; P13-48 peptide) [Peptide P13-48] : −1.83

Give me % Change Dry Weight for each of these substances, listed below.
1. P13-47: P13 peptide variant tested in corn seed treatment, SEQ ID NO: 69; sequence not printed in the text (AGQTSGESPMEQLMKIFADITQSLFGDQDG; P13-47 peptide) [Peptide P13-47]
2. AGQTSGMSPMEQLMKIFADITQSLFGDQ (P13-17 peptide) [Peptide P13-17]
3. SQTSGMSPMEQLMEIFADITQSLF (P13-25 peptide) [Peptide P13-25]

1. −1.34
2. 1.09
3. 3.01

Record % Change Dry Weight for all entries; do not skip any.
1. P13-51: P13 peptide variant tested in corn seed treatment, SEQ ID NO: 73; sequence not printed in the text (AGQTSGMSPMEQLMKEFADITQSLFGDQDG; P13-51 peptide) [Peptide P13-51]
2. AGQTSGMSPLEQLMKIFADITQSLFGDQDG (P13-40 peptide) [Peptide P13-40]
3. AGQTSGMSPMEQLMEIFADITQSLFGDQDGR (P13-20 peptide) [Peptide P13-20]

0.64
0.76
3.23

Batch request: % Change Dry Weight for each of the following substances.
1. TSGLSPLEQLLKIFADITQSLFG (P13-2 peptide) [Peptide P13-2]
2. AGQTSGMSPMEQLLKIFADITQSLFGDQDG (P13-39 peptide) [Peptide P13-39]
3. AGQTSGMSPMEQLMEIFADITQSLFGDQDGK (P13-22 peptide) [Peptide P13-22]

1. 0.38
2. 3.10
3. 1.66

Report % Change Dry Weight for AGQTSGLSPLEQLLKIFADITQSLFG (P13-23 peptide) [Peptide P13-23] please.
2.16
